Source: PubChem BioAssay (NCATS)

- Tested on: ICS
- procedure.summary: qHTS profiling for inhibitors of Plasmodium falciparum proliferation (AID 504749); further: nearly all actives have a fitted effect of over 60% in size
- condition.summary: P. falciparum in erythrocytes, SYBR Green DNA, 72 h; series mostly up to 28.7 µM
Results filed as inconclusive are left out. Active and inactive are the calls of the source. The call rests on the fitted dose curve; in most records, active means well fitted inhibition curve with a large enough effect; inconclusive means small, poorly fitted or top-dose-only effect; inactive means flat fitted curve, though single readings scatter.
// one of 1 for active, 0 for inactive, no free text

[[record]]
compound = "Cn1c(NCCN(CCO)CCCc2ccc([N+](=O)[O-])cc2)cc(=O)n(C)c1=O"
cat = 0

[[record]]
compound = "O=C(O)c1cccc(-c2noc(-c3ccccc3F)n2)c1"
cat = 0

[[record]]
compound = "CN(c1nccc(=O)[nH]1)C1CCN(c2nc3ccccc3n2Cc2ccc(F)cc2)CC1"
cat = 1

[[record]]
compound = "N=C(N=C(N)N)N1CCOCC1"
cat = 0

[[record]]
compound = "CC1(C)NC(=O)N(c2ccc([N+](=O)[O-])c(C(F)(F)F)c2)C1=O"
cat = 0


Can you look up the reported call for CC(C)c1ccc2oc3nc(N)c(C(=O)O)cc3c(=O)c2c1 for me?
0

Can you look up the reported call for CNC[C@H](O)c1ccc(O)c(O)c1 for me?
0

Can you look up the reported call for Cc1cc(=O)c2c(O)c3c(O)cc(=O)c4c3c3c(cc(O)c1c23)C(C)(C)C=4O for me?
1

Can you look up the reported call for CC(C)(S)[C@@H](N)C(=O)O for me?
0

Can you look up the reported call for Nc1cccc2c1CN(C1CCC(=O)NC1=O)C2=O (configuration not stated) for me?
0

Can you look up the reported call for COC1=C(OC)C(=O)C(CCCCCCCCCCO)=C(C)C1=O for me?
0

Can you look up the reported call for COc1cc(OC)c(C(=O)CCCN2CCCC2)c(OC)c1 for me?
0
